Listing of recorded Percent Effect by entry.
SYSTEM: AMP-activated protein kinase, AMPK (Homo sapiens) (UniProt P54646+O43741+P54619+Q9UGJ0+Q9Y478+Q13131+Q9UGI9)
TEST_DESCRIPTION: AMP-dependent Kinase enzyme assay. An in vitro enzyme assay that detects ADP turnover that is directly proportional to AMPK activity. This uses naive AMPK that is activated during the assay with MK-8722
Type: functional
Set-up: scale not given: direction of the effect not stated beside the values
COND: 30 µM
EXPERIMENTAL_ENDPOINT: Percent Effect (%)

1) Cc1nccn1CCCN1CCCC(c2ccccc2)C1 (configuration not stated); -4.4
2) CN(CCCOc1ccccc1Cl)C(=O)CN1CCNC1=O; 10.2
3) Cc1c(Br)cccc1CSc1nnc(CO)n1C; 4.59
4) CC(=O)NCC(=O)N1CCCC(C(=O)c2ccc(C(C)(C)C)cc2)C1 (configuration not stated); 7.51
5) CCCNc1ncc(CN2CCC3(CCNC(=O)CC3)CC2)cn1; -1.43
6) Cc1cc(C)n(CCN(C)c2ccc(-c3nc(C4CC4)no3)cn2)n1; 5.62
7) Cc1ccc(Oc2ncccc2CNC(=O)C2COC(=O)N2)c(F)c1F (configuration not stated); 3.47
8) CCc1nnc(CN2CCc3ccc(S(N)(=O)=O)cc32)o1; 5.08
9) CCc1oc(C(=O)N[C@@H]2c3ccccc3C[C@@H]2O)cc1CN1CCCC1; 4.06
10) COc1ncccc1C(=O)NCCn1nc(C)ccc1=O; -4.66
11) CCNC(=O)NCc1ccc(-n2ccc(C(F)(F)F)n2)cc1; -2.79
12) Cc1cc(S(=O)(=O)N(CCO)C2CC2)ccc1F; 0.797
13) COc1ccccc1CN(Cc1nc(C)no1)C1CC1; 6.47
14) COc1ccc2c(c1)Cc1c-2nc(N)c(C#N)c1C1CCOC1 (configuration not stated); -32.8
15) O=C(c1cc(C2CC2)on1)N1C[C@H]2CC[C@](O)(c3ccc(F)cc3)[C@H]2C1; 12.8
16) CC(C)NC(=O)c1nc(Cn2c(C(F)(F)F)nc3ccccc32)no1; 6.13
17) O=C(NCCNCc1cccc2c1OCCCO2)C1CCCC1; -0.551
18) COc1cc(NC2CCCN(c3ncccn3)C2)cc(OC)c1 (configuration not stated); -64.1
19) CCCc1nnc(N2CCC(C3CCN(C)CC3)CC2)o1; -1.66
20) Cc1cccc(N2CCN(C(=O)CNCCn3cccn3)CC2)c1; -3.32
21) Cc1cc(C)n(CCN2CCC(N(C)Cc3noc(C4CC4)n3)C2)n1 (configuration not stated); 3.34
22) O=C(c1ccccc1)C1CCN(C(=O)CC2COCCN2)CC1 (configuration not stated); 1.36
23) COCCc1noc(CN2CCN(c3ccc(OC)cc3)C(=O)C2C)n1 (configuration not stated); 4.12
24) Cc1nncn1CCN1C(=O)CC2(CCCC2)CC1=O; 9.66
25) N[C@H]1CN(C(=O)c2ccc3[nH]c(=O)c(=O)[nH]c3c2)C[C@@H]1c1ccccc1; 3.24
26) O=C(NCc1cc(-c2ccccc2)no1)NC1CCCCNC1=O (configuration not stated); -4.86
27) Cc1ccnc(NC(=O)c2ccc(C)o2)c1; 9.16
28) CCc1ocnc1C(=O)N1CCC2(CCCN(CC(C)(C)C)C2=O)C1 (configuration not stated); 9.83
29) C=C(C)CN(CC)C(=O)CN1CCCC1C(=O)N(C)C (configuration not stated); 3.77
30) C[C@@H]1CN(c2ccc(Cl)cn2)CC[C@@]1(O)C1CCOCC1; 5.56
31) CN(C)CC(=O)N1CCN(c2cc(N3CCCC3CO)ncn2)CC1 (configuration not stated); -7.31
32) CCN(CC)C(=O)N1CCOCC1c1c(C)nn(C)c1C (configuration not stated); 2.79
33) CC(C)(C)SCCN1CC(=O)N2CC[C@@H](O)C[C@H]2C1=O; 3.02
34) Cc1cc(C(=O)NCCN2CCCCC2)nn1C(C)(C)C; 24.9
35) Cc1cccnc1NC(=O)c1ccc(F)c(S(=O)(=O)NC2CC2)c1; -4.18
36) NC(=O)C1CCN(c2ncccc2C(=O)N2CCc3ccccc32)C1 (configuration not stated); 2.58
37) Cc1ccccc1-n1cc(CN(C)C[C@@H]2CCCN3CCCC[C@H]23)cn1; -2.73
38) c1csc(CN2CCCN(c3ccc(Cn4ccnc4)cn3)CC2)c1; -2.96
39) NC(=O)C(NC1CCN(Cc2ccc(F)cc2)CC1)c1ccccc1 (configuration not stated); -4.88
40) CCOc1cc(NC(=O)N2CCOC3(CCC3)C2)ccc1C; -1.23
41) O=C(c1cc(-c2ccccc2)nc2onc(C3CC3)c12)N1CC[C@H](O)C1; 4.85
42) CCOc1cccc(C(C(=O)O)N(C)Cc2cc(C)no2)c1 (configuration not stated); 7.67

====

SYSTEM: Proteasome subunit beta (Trypanosoma cruzi)
TEST_DESCRIPTION: Trypanosoma cruzi proteasome chymotrypsin-like activity (TcProtChymo) assay. Also: in the data most compounds retested in dose-response had high values.
Type: functional
Set-up: scale not given: direction of the effect not stated beside the values
COND: 9.37 µM
// reported Percent Effect per item
EXPERIMENTAL_ENDPOINT: Percent Effect

1) Cc1cc(OCC(=O)N2CCCC(c3noc(C)n3)C2)no1 (configuration not stated); 19.8%
2) CCOC1CCCN(C(=O)c2sccc2-n2cnnn2)C1 (configuration not stated); 13.1%
3) Cc1cc2c(cc1C(=O)N1CC[C@H](CO)[C@@H](O)C1)OCCO2; 8.22%
4) c1ccc(OC2CCCC2)c(CNC2CCc3ncnn3C2)c1 (configuration not stated); 20.7%
5) CN(C)CC(=O)N1CCC2(CC1)COC(COc1ccccn1)C2 (configuration not stated); 12.3%
6) Cc1ncnc(NCc2cc3n(n2)CCCN(S(C)(=O)=O)C3)c1C; 7.71%
7) Cc1ccc(C(=O)N2C[C@H]3CCC[C@@]3(COCc3cccnc3)C2)s1; 15.4%
8) COCCN1CCN(Cc2cccc(OCC(N)=O)c2)CC1C (configuration not stated); -0.255%
9) COc1c(C2CCCN2C(=O)c2cncnc2C)c(C)nn1C (configuration not stated); 18.8%
10) Cc1noc(C2CCN(C(=O)CCc3nccs3)CC2)n1; 5.72%
11) Cc1nccc(CN2CC[C@H](Oc3cccc(F)c3)[C@@](C)(O)C2)n1; 0.657%
12) O=C(NCCCNc1ccccc1)c1scnc1Cl; 8.06%
13) CC(C)(O)CN1CCN(C(=O)c2cccnc2O)CC1; 9.13%
14) CNC(=O)[C@@H]1C[C@H]2CN(Cc3ccco3)C[C@H]2N1C; 16.7%
15) CN(C)CC(=O)N1C[C@H]2CCC[C@@]2(COc2ccccn2)C1; 11.9%
16) Cc1n[nH]c(C)c1C1COCCN1C(=O)c1ccccc1 (configuration not stated); 3.67%
17) CN(Cc1nnc(C2CC2)o1)C1CCN(CCCc2cnn(C)c2)C1 (configuration not stated); 22.1%
18) FC(F)(F)c1nc(NC2CCCC2)c2ccccc2n1; 9.76%
19) CCCNC(=O)c1cc2c(c3ccccc3n2C)n1C(=O)N(C)C; 9.62%
20) O=C(CC1CC1)N1C[C@@H]2CCN(c3cnccn3)C[C@@H]2C1; 5.06%
21) CC(C)=CCN1CCC(c2nccn2Cc2cscn2)CC1; 9.07%
22) COc1cc(C)nc(N2CCN(C(=O)CN(C)C3CC3)CC2)n1; 2.99%

====

Consider the following molecules and their measured Percent Effect readings.
Species on record: Homo sapiens
TEST_DESCRIPTION: To identify inhibition of the IFN signalling (Jak-Stat) pathway via expression of an eGFP reporter gene under the control of an IFN-stimulated response element (ISRE) containing MxA promoter.
Assay type: functional
Parameters: scale not given: direction of the effect not stated beside the values
COND: 30 µM
EXPERIMENTAL_ENDPOINT: Percent Effect (%)

1. Cc1cc2c(=O)n3c(nc2s1)CCN(Cc1cnc(C(C)C)nc1)CC3; 28.4
2. CNc1ccc(CC2CCCN(C(=O)c3cncnc3C)C2)nn1 (stereo not drawn); 4.65
3. CC(C)c1nc(C2CCCN2Cc2ccn(C)c(=O)c2)no1 (stereo not drawn); 17.1
4. CCc1nccn1C1CCCN(C(=O)Cc2ccc(OC)c(F)c2)C1 (stereo not drawn); 13
5. CS(=O)(=O)N1CCC(c2nnc3ccc(C(=O)N4CCCC4)cn23)C1 (stereo not drawn); 6.07
6. Cn1ccc(C(=O)NCc2cccc(N3CCCCC3=O)c2)cc1=O; 14.9
7. Cc1cc(-c2nn(C)c(Cl)c2CN2Cc3ccccc3C(O)C2)no1 (stereo not drawn); 47.5
8. O=C(N1CCCC1)N1CCC2(CCCN(CCOc3ccccc3)C2)C1 (stereo not drawn); 15.5
9. CC(C)c1nc(C2CCCN2CC(=O)Nc2nncs2)no1 (stereo not drawn); 7.39
10. C[C@@H]1CN(C(=O)c2cccs2)C[C@]12CCN(CCN(C)C)C2=O; 18
11. Cc1ccc(NC(=O)C2CSCN2C(=O)c2cnn(C)c2)c(C)c1 (stereo not drawn); 0.716
12. CS(=O)(=O)N1CCC[C@]2(C[C@@H](Oc3ncccc3F)CO2)C1; -0.297
13. CC(=O)NCCC(=O)NCc1cccnc1-n1cnc2ccccc21; -5.79
14. Cc1noc(Cl)c1CCC(=O)N1CCc2sccc2C1; 25.1
15. CC(=O)N1[C@@H](C(=O)NCC2CC2)C[C@@H]2CN(Cc3ccco3)C[C@@H]21; 9.99
16. O=C1C[C@H]2[C@@H](CCN2C(=O)Cc2cccs2)N1Cc1cccnc1; 8.33
17. COc1ncccc1CNC(=O)c1cccc(C)n1; 18.5
18. Cc1nn(C)c(N(C)C)c1CNC(C)COc1cccc(F)c1 (stereo not drawn); 9.12
19. CCc1sc(-c2nnc(CNCCn3cc(C)cn3)o2)cc1C; 10.2
20. Cc1cc2c(cc1C(=O)N1CC[C@H](CO)[C@@H](O)C1)OCCO2; -0.0662
21. CN(C)C[C@@H]1C[C@@H]2CN(C(=O)c3ccoc3)CC[C@@H]2N1CC1CC1; 11.2
22. CCn1nc2c(cc1=O)CN(Cc1nc(-c3ccccn3)no1)CC2; 28.1
23. CC(C)Oc1ncccc1CNC(=O)c1ccco1; 7.02
